Below are MIC values recorded for Saccharomyces cerevisiae.
Outcome measure: MIC

{"Smiles representation": "Cc1c(O)c(C=O)c2nc3c(O)ccc(C(=O)NCCN(C)C)c3nc2c1O", "Outcome measure": "MIC", "Result": "> 1000 µg/mL"}
{"Smiles representation": "COC(=O)c1ccc(O)c2nc3c(C=O)c(O)c(C)c(O)c3nc12", "Outcome measure": "MIC", "Result": "> 1000 µg/mL"}
{"Smiles representation": "Cc1c(O)c(C=O)c2nc3c(O)ccc(C(=O)NCCCN(C)C)c3nc2c1O", "Outcome measure": "MIC", "Result": "111 µg/mL"}
{"Smiles representation": "CN(C)CCNC(=O)c1ccc(O)c2nc3c(C=O)c(O)cc(O)c3nc12", "Outcome measure": "MIC", "Result": "> 1000 µg/mL"}
{"Smiles representation": "Cc1c(O)c(C=O)c2nc3c(O)ccc(C(=O)O)c3nc2c1O", "Outcome measure": "MIC", "Result": "111 µg/mL"}
{"Smiles representation": "Cc1c(O)c(C=NCCN(C)C)c2nc3c(O)ccc(C(=O)NCCN(C)C)c3nc2c1O", "Outcome measure": "MIC", "Result": "1000 µg/mL"}
{"Smiles representation": "COC(=O)c1ccc(O)c2nc3c(C=NCCN(C)C)c(O)c(C)c(O)c3nc12", "Outcome measure": "MIC", "Result": "111 µg/mL"}
{"Smiles representation": "CCN(CC)CCNC(=O)c1ccc(O)c2nc3c(C=O)c(O)c(C)c(O)c3nc12", "Outcome measure": "MIC", "Result": "111 µg/mL"}
